methodNotes: Solubility testing of peptide 1 salts in gelling compositions (HPLC after filtration)
Format: physicochemical
setupConditions: 38% glycerol gelling composition, in 38% glycerol; read-out: solubility
Where a name gives a salt, the structure may show the parent alone.
recordedMetric: solubility

Query (compound): CC(=O)NC(CCCNC(=N)N)C(=O)N[C@H]1CSSC[C@@H](C(N)=O)NC(=O)[C@H](Cc2c[nH]c3ccccc23)NC(=O)[C@H](CCCNC(=N)N)NC(=O)[C@@H](Cc2ccccc2)NC(=O)[C@H](Cc2cnc[nH]2)NC(=O)[C@@H](C)NC1=O (stereo partly shown) [peptide 1 acetate salt] ; field requested: solubility
≥ 100 mg/mL

The measurements presented in this section are drawn from patent US20170035884A1.
